Test system: MOLT-4 leukemia
Experiment: NCI-60 one-dose screen, 48 h
Conditions: 10 µM unless noted
About 83,000 compounds went through this panel and 20% of them were active in at least one assay; those are over-represented in the sample as a whole. Active and inactive are the calls of the source. Rule for the calls: active = growth percent below 10; inactive = the rest.
The reply should name one outcome from active, inactive

For orientation, consider the following solved cases.
CCOC(=O)/C(C#N)=C1/NNC(=Nc2cccnc2)S1	inactive
C[C@H]1[C@H](C)CC[C@]2(C(=O)Nc3ccc4ncccc4c3)CC[C@]3(C)C(=CC[C@@H]4[C@@]5(C)CCCNC(C)(C)[C@@H]5CC[C@]43C)[C@H]12	active
CC(=O)[C@H]1CCC/C=C/[C@@H]2C[C@H](O)C[C@H]2[C@H](O)/C=C/C(=O)O1	active
COc1ccc(C(=O)NNc2nc(Cl)nc(N3CCN(C(c4ccccc4)c4ccccc4)CC3)n2)cc1	active
CC1=CCC(OC(=O)C(C)(O)CCC(O)(C(=O)OC2(C)C=CC(O)(C(C)C)CC2)C(C)C)(C(C)C)CC1 (stereo unspecified)	inactive
CCOC(=O)c1ccc2c(c1)ncn2-c1ccc(NC(=O)Nc2cccc(C)c2)cc1	inactive

## Task So what was the verdict on `COc1ccc(-c2[nH][nH]c(=O)c2-c2nc3ccccc3s2)cc1` in this test?
## Result inactive

## Task So what was the verdict on `O=C1Nc2ccc(F)cc2/C1=C\c1c(-c2ccccc2)nc2ccccn12` in this test?
## Result inactive

## Task So what was the verdict on `C#CCNC(=O)c1cccc2c1cc(C)n2-c1nc2c(c(NCc3ccccc3)n1)CCCC2` in this test?
## Result active

## Task So what was the verdict on `CC/C(=C\c1ccc(OC)cc1)C(=O)c1ccc(OC)cc1` in this test?
## Result inactive

## Task So what was the verdict on `COc1cc(/C(C)=C(\c2ccc(Cl)cc2)c2ccc(OCCN3CCCC3)cc2)ccc1F` in this test?
## Result inactive

----------
System: HOP-92 NSCLC
Test: NCI-60 one-dose screen, 48 h
Details: 10 µM unless noted
The panel holds about 83,000 compounds, 20% with a hit somewhere; the sample as a whole holds those more often. Active and inactive are the calls of the source. The calls were made as follows: active = growth percent below 10; inactive = the rest.
The reply should name one outcome from 1 (yes) (active), 0 (no) (inactive)

For orientation, consider the following solved cases.
CCCOc1ccc(/C=N/Nc2cc(C)nc3ccc(Br)cc23)cc1	0 (no)
O=C(CNCCN1CCOCC1)N1c2cccc3cccc(c23)N(C(=O)CNCCN2CCOCC2)C1c1cn(-c2ccccc2)nc1-c1cccc([N+](=O)[O-])c1	0 (no)
COc1cc(CC(=O)n2ncc3ccc(N)cc32)cc(OC)c1OC	0 (no)

## Task So what was the verdict on `COc1cc2oc(-c3cccc(C(=O)Nc4ccc5c(c4)OCO5)c3)cc(=O)c2c(O)c1OC` in this test?
## Result 0 (no)

## Task So what was the verdict on `CC(=O)[C@H]1CCC/C=C/[C@@H]2C[C@H](O)C[C@H]2[C@H](O)/C=C/C(=O)O1` in this test?
## Result 0 (no)

## Task So what was the verdict on `CCOC(=O)c1ccc2c(c1)ncn2-c1ccc(NC(=O)Nc2cccc(C)c2)cc1` in this test?
## Result 0 (no)

## Task So what was the verdict on `COc1ccccc1/C=C1\Oc2cc(OCCN3CCCC3)ccc2C1=O` in this test?
## Result 0 (no)

## Task So what was the verdict on `CC(=O)Nc1cccc(-c2ccc3c(c2)NC(=O)/C3=C\c2ccc[nH]2)c1` in this test?
## Result 0 (no)

## Task So what was the verdict on `CC(=O)O[C@H]1Cc2c([nH]c3ccccc23)[C@@H](c2ccc(Cl)cc2)N1C(=O)CCNC(C)(C)C` in this test?
## Result 0 (no)

## Task So what was the verdict on `COCCCN1CC(O)=C(c2nc(-c3ccc(C)cc3)cs2)C1=N` in this test?
## Result 0 (no)

## Task So what was the verdict on `N/C(=N\C(N)=N\c1nc2ccccc2s1)c1cccc(Cl)c1` in this test?
## Result 0 (no)

## Task So what was the verdict on `N#C/C(=C\c1ccc(Cl)cc1)n1nnc2cc(F)c(F)cc21` in this test?
## Result 1 (yes)

## Task So what was the verdict on `COc1cc(/C=C\c2cc(/C=C\c3ccc(O)c(OC)c3)n(C(=O)COc3ccccc3)n2)ccc1O` in this test?
## Result 0 (no)
